Provenance of the data: ChEMBL document CHEMBL1649200

Listed compounds paired with reported MIC
system: Ureaplasma parvum; assay: Antimicrobial activity against Ureaplasma parvum isolate UHWJM after 48 hrs by modified broth microdilution technique; type: functional
Answer with a number only, understood to be in µg/mL.

Answered examples (3):
Look up MIC of CC[C@H]1OC(=O)[C@H](C)[C@@H](O[C@H]2C[C@@](C)(OC)[C@@H](O)[C@H](C)O2)[C@H](C)[C@@H](O[C@@H]2O[C@H](C)C[C@H](N(C)C)[C@H]2O)[C@](C)(O)C[C@@H](C)C(=O)[C@H](C)[C@@H](O)[C@]1(C)O and report it.
4

Look up MIC of O=C(O)c1cn(C2CC2)c2cc(N3CCNCC3)c(F)cc2c1=O and report it.
4

Look up MIC of C[C@H]1c2cccc(O)c2C(=O)C2=C(O)[C@]3(O)C(=O)C(C(N)=O)=C(O)[C@@H](N(C)C)[C@@H]3[C@@H](O)[C@@H]21.O and report it.
0.5

***
Look up MIC of CN(C)[C@@H]1C(O)=C(C(N)=O)C(=O)[C@@]2(O)C(O)=C3C(=O)c4c(O)cccc4[C@@](C)(O)[C@H]3C[C@@H]12 and report it.
2
